Attribution: paper PMC13266984

In this section, each of the compounds is paired with its reported Cell_CC-v2.
# target entity: OE19 (3A1) (Homo sapiens)
# Sequence (P30838 1-453): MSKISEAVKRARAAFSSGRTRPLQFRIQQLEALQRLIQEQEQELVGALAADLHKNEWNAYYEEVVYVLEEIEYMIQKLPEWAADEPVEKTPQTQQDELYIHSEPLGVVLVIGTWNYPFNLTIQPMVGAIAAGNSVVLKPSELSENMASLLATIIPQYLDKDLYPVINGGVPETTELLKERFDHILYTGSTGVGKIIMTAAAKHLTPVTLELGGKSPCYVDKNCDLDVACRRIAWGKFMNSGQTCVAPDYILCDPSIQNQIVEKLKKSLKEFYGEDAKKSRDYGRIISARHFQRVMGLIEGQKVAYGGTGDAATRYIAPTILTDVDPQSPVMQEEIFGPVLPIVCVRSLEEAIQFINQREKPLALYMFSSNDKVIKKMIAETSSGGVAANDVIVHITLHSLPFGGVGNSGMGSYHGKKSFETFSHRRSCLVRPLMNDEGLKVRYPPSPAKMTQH
# protocol: Cellular ALDEFLUOR assay in OE19 cells (preferential ALDH3A1 expression)
# run conditions: Table S5, cellular curve class
Just the number, please, no unit after it.

// known answers, use as guide
O=C(NCc1ccc2cc(Cl)ccc2c1)c1csc(N2CCN(c3cccc(C(F)(F)F)c3)CC2)n1 : -1.4
Cc1cc(CNC(=O)c2csc(N3CCN(c4cccc(C(F)(F)F)c4)CC3)n2)ccc1Cl : -1.1
O=C(NCc1ccc(-c2ccncc2)nc1)c1csc(N2CCN(c3cccc(C(F)(F)F)c3)CC2)n1 : -1.3
O=C(NCCc1cccc(OCCCc2ccccc2)c1)c1csc(N2CCN(c3cccc(C(F)(F)F)c3)CC2)n1 : -1.1

Now for a further compound.
input: // returns reported Cell_CC-v2 for input O=C(NCc1ccc(Cl)c(F)c1)c1csc(N2CCN(c3cccc(C(F)(F)F)c3)CC2)n1
output: -1.1

###

# target entity: UniProtKB P30838
# Sequence (P30838 1-453): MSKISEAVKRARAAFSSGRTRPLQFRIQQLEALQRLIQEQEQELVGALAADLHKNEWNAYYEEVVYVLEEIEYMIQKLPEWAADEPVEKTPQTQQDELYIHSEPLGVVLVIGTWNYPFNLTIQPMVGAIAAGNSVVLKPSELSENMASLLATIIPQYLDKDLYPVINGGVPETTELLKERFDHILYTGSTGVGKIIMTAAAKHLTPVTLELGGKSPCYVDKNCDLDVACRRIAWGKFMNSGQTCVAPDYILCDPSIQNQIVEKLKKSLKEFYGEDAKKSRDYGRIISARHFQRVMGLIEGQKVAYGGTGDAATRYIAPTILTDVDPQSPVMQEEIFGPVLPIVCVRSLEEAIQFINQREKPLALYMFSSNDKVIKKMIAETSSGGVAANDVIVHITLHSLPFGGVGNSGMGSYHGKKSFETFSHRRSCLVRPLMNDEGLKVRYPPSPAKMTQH
# protocol: ALDH3A1 biochemical assay (benzaldehyde/NADP+, diaphorase-resazurin readout, 1,536-well)
# run conditions: Table S1, primary screen; curve class
Catalogue of molecules with associated CC-v2
Answer with a number only.

Below, 8 molecules whose answers are already recorded.
Cc1cc(=O)[nH]c(N2CCC(NC(=O)NCc3ccco3)CC2)n1 : -2.2
O=C(NCc1nc(-c2ccccc2)no1)C1CCN(c2cc(-n3cncn3)ncn2)CC1 : -2.2
C[S+](=O)([O-])c1ccc(CN2C[C@H](O)C[C@H]2c2nc(C3CC3)no2)cc1 : -2.2
COCc1noc(-c2ccc(NC[C@H]3CCc4ccccc4O3)nc2)n1 : -2.2
O=C(Nc1ccc2c(c1)OCCO2)N1CCC(Cc2nnc(-c3ccncc3)[nH]2)C1 (stereo not drawn) : -2.4
O=C(CCc1cc2n(n1)CCCNC2)Nc1ccc2c(c1)OCCO2 : -2.4
COCC(=O)Nc1ncncc1-c1noc([C@@H]2CCCN2Cc2cc(OC)c(OC)c(OC)c2)n1 : -2.2
COCc1nc(N2CCC(Cn3cccn3)CC2)cc([C@H]2C[C@H](N)C2)n1 : -3

input: Hello, I am looking for reported CC-v2 with UniProtKB P30838 for CC(O)c1ccc(CCNC(=O)C(=O)Nc2cc3c4c(c2)CC(=O)N4CCC3)s1 (stereo not drawn) . Could you help?
output: -2.2

input: Lookup: CC-v2 / UniProtKB P30838 / COc1cccc(CN2CC(Oc3ccccc3C(=O)NC3CC3)C2)c1
output: -3

###

# target entity: OE19 (3A1) (Homo sapiens)
# protocol: Cellular ALDEFLUOR assay in OE19 cells (preferential ALDH3A1 expression)
# run conditions: Table S4, OE19 cells
value type: Cell_Efficacy
// return a plain number; no unit text

Cc1cccc(CNC(=O)c2csc(N3CCN(c4ccc([S+](=O)([O-])F)cc4)CC3)n2)c1 : -83.98

input: Test system OE19 (3A1) (Homo sapiens); read-out Cell_Efficacy; what value for Cc1cccc(CNC(=O)c2csc(N3CCN(c4cc(Cl)c(Cl)c(Cl)c4)CC3)n2)c1 ?
output: -73.43

input: Report Cell_Efficacy for COc1cc(N2CCN(c3nc(C(=O)NCc4cccc(C)c4)cs3)CC2)cc(OC)c1OC tested on OE19 (3A1) (Homo sapiens).
output: -70.97

input: So what Cell_Efficacy did Cc1cccc(CNC(=O)c2csc(N3CCN(c4ccccc4C)CC3)n2)c1 get with OE19 (3A1) (Homo sapiens)?
output: -88.54

input: Give recorded Cell_Efficacy with OE19 (3A1) (Homo sapiens) for the following molecule: Cc1cccc(CNC(=O)c2csc(N3CCN(c4cccc(O)c4)CC3)n2)c1
output: -77.14

input: Any idea what Cell_Efficacy came out for Cc1cccc(CNC(=O)c2csc(N3CCN(c4ccc(C(F)(F)F)cc4)CC3)n2)c1 on OE19 (3A1) (Homo sapiens)?
output: -93.28

input: So what Cell_Efficacy did COc1c(F)cc(N2CCN(c3nc(C(=O)NCc4cccc(C)c4)cs3)CC2)cc1F get with OE19 (3A1) (Homo sapiens)?
output: -94.45

input: Any idea what Cell_Efficacy came out for COc1ccc(N2CCN(c3nc(C(=O)NCc4cccc(C)c4)cs3)CC2)cc1OC on OE19 (3A1) (Homo sapiens)?
output: -91.42

###

# target entity: OE19 (3A1) (Homo sapiens, UniProt P30838)
# protocol: Cellular ALDEFLUOR assay in OE19 cells (preferential ALDH3A1 expression)
Known AC50 of a selection of compounds
The figure you give is taken to be in µM; do not add the unit.

# count of solved cases: 2
Cc1cccc(CNC(=O)c2csc(N3CCN(c4cccc(C(F)(F)F)c4)CC3)n2)c1 [Compound 5] : 3.13
Cc1cccc(CNC(=O)c2csc(N3CCN(c4cc(C(F)(F)F)nc5ccccc45)CC3)n2)c1 [NCGC01210239-01] : 9.88

Could you now consider this next compound?
input: Consider the compound shown here: O=C(NCc1cccc(C(=O)N2CCCCC2)c1)c1csc(N2CCN(c3cccc(C(F)(F)F)c3)CC2)n1 [NCGC01407977-01] What is its recorded AC50?
output: 50.1

###

# target entity: UniProt P30838
# Sequence (P30838 1-453): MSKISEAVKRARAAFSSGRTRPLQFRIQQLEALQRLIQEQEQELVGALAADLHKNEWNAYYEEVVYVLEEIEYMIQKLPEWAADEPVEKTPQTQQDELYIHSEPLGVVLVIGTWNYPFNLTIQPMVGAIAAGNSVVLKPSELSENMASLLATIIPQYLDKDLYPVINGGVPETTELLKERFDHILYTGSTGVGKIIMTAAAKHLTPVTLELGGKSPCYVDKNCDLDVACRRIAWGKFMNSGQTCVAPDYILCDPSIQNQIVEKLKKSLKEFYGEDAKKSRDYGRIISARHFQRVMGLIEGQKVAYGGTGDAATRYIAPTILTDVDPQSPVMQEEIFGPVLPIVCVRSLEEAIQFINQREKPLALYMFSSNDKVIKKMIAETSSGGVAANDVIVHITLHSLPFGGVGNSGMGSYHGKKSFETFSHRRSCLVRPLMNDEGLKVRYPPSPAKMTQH
# protocol: ALDH3A1 biochemical assay (benzaldehyde/NADP+, diaphorase-resazurin readout, 1,536-well)
Reported AC50 is given for each of the following compounds.
Remember to follow the number with its unit.

Example compounds with recorded AC50:
C[S+](=O)([O-])c1cccc(CNC(=O)c2csc(N3CCN(c4cccc(C(F)(F)F)c4)CC3)n2)c1 [NCGC01407971-01] : 0.891 µM
COc1ccc(NC(=O)N[C@H]2C[C@@H](C(=O)N[C@@H](Cc3cccs3)C(N)=O)N(C(=O)CSC)C2)cc1 [NCGC00398253-01] : 14.1 µM
COc1cccc(-c2cc(C(=O)NCc3cnn(C)c3)c3c(c2)N(C)CCO3)c1OC [NCGC00417015-01] : 17.8 µM
O=C(NCc1ccc(Cl)c(F)c1)c1csc(N2CCN(c3cccc(C(F)(F)F)c3)CC2)n1 [NCGC01407936-01] : 0.0126 µM
C=CCOc1c(OC)ccc2c1CN(Cc1ccccc1)C(=O)CCN2CC(O)COc1ccc(OC)cc1 (stereo not drawn) [NCGC00501442-01] : 8.91 µM
Cc1cccc(CNC(=O)c2csc(N3CCN(Cc4cccc(C)c4)CC3)n2)c1 [NCGC01211187-01] : 0.91 µM

input: GET /values?readout=AC50&item= O=C(NCc1c(Cl)cccc1Br)c1csc(N2CCN(c3cccc(C(F)(F)F)c3)CC2)n1 [NCGC01407972-01]
output: 0.0501 µM

input: Consider the compound COc1ccc(NC(=O)N[C@@H]2C=C[C@@H](c3c(C)nn(CCC#N)c3C)C2)cc1 [NCGC00399960-01] and give its measured AC50.
output: 14.1 µM

input: Name the recorded AC50 for Cc1nn(CCC#N)c(C)c1[C@@H]1C=C[C@@H](NC(=O)Nc2ccc(Cl)cc2)C1 [NCGC00399959-01] .
output: 28.2 µM

input: Name the recorded AC50 for O=C(NCc1cccc(F)c1)c1csc(N2CCN(c3ccc(Cl)cc3)CC2)n1 [Compound 1] .
output: 0.71 µM

input: Tell me the measured AC50 of COC(=O)c1ccc2nc(CO[C@H]3CN(Cc4ccc(C(F)(F)F)cc4)C[C@H]3F)[nH]c2c1 [NCGC00392986-01] , please.
output: 28.2 µM

input: Sample Cc1cc(CNC(=O)c2csc(N3CCN(c4cccc(C(F)(F)F)c4)CC3)n2)ccc1Cl [Compound 16] — what was its AC50?
output: 0.0079 µM
